B1: KLHL14 (parent)
chain: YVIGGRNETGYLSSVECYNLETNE

Variants of: B1
measurementDescription: protein stability index of a GFP-peptide fusion (GPS, HEK-293T) (PSI 1-6); higher = more stable;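 also: lentivirally expressed fusions sorted by FACS into six bins by GFP to DsRed ratio, PSI derived from sequencing read proportions per bin multiplied by bin number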
conditionSet: c terminus: a fixed tail appended
Rule: 1 for protein stability index not less than 2, -1 for anything less.

Please review the entries below; each comes with its answer.
>>> category("G5N")
-1
>>> category("N19Y")
-1

Say whether T9F shows protein stability index of 2 or more.
1

Reported protein stability index at or above 2? N23R
-1

Check the entry E8P : does protein stability index equal or exceed 2?
-1
